Biological target: T1, polypeptide GC3pep (human)
T1 construct: also called membrane proximal polypeptide GC3pep
T1 peptide: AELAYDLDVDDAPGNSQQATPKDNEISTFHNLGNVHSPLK
Experiment: ELISA, GC3pep coated, antibody 0.1 nM;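 note: antibody allowed to bind the coated plate 2 h at 37 °C, then detected via HRP-conjugated secondary antibody and TMB development for 10 min, stopped with HCl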
Answer each item with its documented OD450 nm.
Use OD450 nm as the unit, but write only the number.

QUERY: Fill in the blank: the reported OD450 nm of F2.152.3 (antibody, human IgG1, kappa, V domains shown, human-murine chimeric antibody) VH: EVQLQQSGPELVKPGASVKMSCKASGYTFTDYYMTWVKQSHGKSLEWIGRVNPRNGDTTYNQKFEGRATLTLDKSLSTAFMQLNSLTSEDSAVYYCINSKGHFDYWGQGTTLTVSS VL: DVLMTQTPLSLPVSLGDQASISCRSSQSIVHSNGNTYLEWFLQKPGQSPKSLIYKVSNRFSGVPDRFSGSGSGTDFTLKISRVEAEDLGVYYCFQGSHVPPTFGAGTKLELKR is ____.
RESULT: 1.53

QUERY: // OD450 nm lookup, key: F1.21.8 (antibody, human IgG1, kappa, V domains shown, human-murine chimeric antibody) VH: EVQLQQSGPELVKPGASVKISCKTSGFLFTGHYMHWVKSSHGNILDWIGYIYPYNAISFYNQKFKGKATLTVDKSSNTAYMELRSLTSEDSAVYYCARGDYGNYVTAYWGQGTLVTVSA VL: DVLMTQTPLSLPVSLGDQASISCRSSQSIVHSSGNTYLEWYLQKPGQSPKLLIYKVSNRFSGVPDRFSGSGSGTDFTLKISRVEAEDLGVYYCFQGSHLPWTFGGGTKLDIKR
RESULT: 0.05

QUERY: For the binder shown here, F1.57.21 (antibody, human IgG1, kappa, V domains shown, human-murine chimeric antibody) VH: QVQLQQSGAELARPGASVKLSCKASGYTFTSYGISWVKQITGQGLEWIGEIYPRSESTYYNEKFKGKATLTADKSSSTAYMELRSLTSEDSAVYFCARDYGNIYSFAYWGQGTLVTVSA VL: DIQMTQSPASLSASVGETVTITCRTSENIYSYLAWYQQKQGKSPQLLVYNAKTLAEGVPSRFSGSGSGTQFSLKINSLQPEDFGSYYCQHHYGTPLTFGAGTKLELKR , give the reported OD450 nm.
RESULT: 0.05

QUERY: Reported OD450 nm for F1.9.19 (antibody, human IgG1, kappa, V domains shown, human-murine chimeric antibody) VH: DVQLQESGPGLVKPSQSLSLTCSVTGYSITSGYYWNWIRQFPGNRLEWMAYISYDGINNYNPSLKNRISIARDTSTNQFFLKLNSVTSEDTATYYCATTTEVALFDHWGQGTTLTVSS VL: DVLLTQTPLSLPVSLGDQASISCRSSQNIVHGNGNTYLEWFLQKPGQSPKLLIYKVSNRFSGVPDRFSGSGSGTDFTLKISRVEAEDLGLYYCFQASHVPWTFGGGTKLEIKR : what is it?
RESULT: 0.04
